Experiment: Shelf life of UP resin B containing a photoinitiator, stored at 60° C. (Table 3)
Format: physicochemical
Test context: 0.2% initiator, dark
Property name: Shelf life (h)
One number for each entry, in h.

Some entries whose results are on file:
COP(=O)(C(=O)c1c(C)cc(C)cc1C)c1ccccc1 (stereo not drawn) [I, reference compound] = 155
Cc1cc(C)c(C(=O)P(=O)(O)c2ccccc2)c(C)c1 [Compound 11] = 155
Cc1cc(C)c(C(=O)P(=O)(O)c2ccccc2)c(C)c1 [Compound 9] = 140

State recorded Shelf life for all listed molecules.
1. Cc1cc(C)c(C(=O)P(=O)(OC(C)C)c2ccccc2)c(C)c1 (stereo not drawn) [II, reference compound]
2. Cc1cc(C)c(C(=O)P(=O)(O)c2ccccc2)c(C)c1 [Compound 14]
3. Cc1cc(C)c(C(=O)P(=O)(c2ccccc2)c2ccccc2)c(C)c1 [V, reference compound]

155
155
140

====

Experiment: Hardening activity of UP resin A under UV light, temperature/time curve (Table 2)
Test context: 0.2% compound
Property name: hardening time HT 25°-Tmax

Some entries whose results are on file:
Cc1cc(C)c(C(=O)P(=O)(O)c2ccccc2)c(C)c1 [Compound 9] = 5/53
Cc1cc(C)c(C(=O)P(=O)(O)c2ccccc2)c(C)c1 [Compound 13] = 6/08
Cc1cc(C)c(C(=O)P(=O)(O)c2ccccc2)c(C)c1 [Compound 15] = 7/15

Continue with the compound presented below.
What hardening time HT 25°-Tmax value was documented for this compound, COC(OC)(C(=O)c1ccccc1)c1ccccc1 [III, benzil dimethyl ketal, reference compound] ?
8/00

====

I'd be grateful if you could share measured hardening time HT 25°-Tmax for these entries.
Experiment: Hardening activity of UP resin C under UV light, temperature/time curve (Table 2)
Test context: 0.2% compound

Some entries whose results are on file:
Cc1cc(C)c(C(=O)P(=O)(O)c2ccccc2)c(C)c1 [Compound 15] = 7/30
Cc1cc(C)c(C(=O)P(=O)([O-])c2ccccc2)c(C)c1.[Na+] [Compound 4] = 5/23
Cc1cc(C)c(C(=O)P(=O)(OC(C)C)c2ccccc2)c(C)c1 (centres unmarked) [II, reference compound] = 6/08
Cc1cc(C)c(C(=O)P(=O)(O)c2ccccc2)c(C)c1 [Compound 11] = 5/15

Continue with the compound presented below.
What hardening time HT 25°-Tmax value was documented for this compound, Cc1cc(C)c(C(=O)P(=O)(O)c2ccccc2)c(C)c1 [Compound 13] ?
5/23
